Would you mind telling me the reported z-score of each entry?
assay: cell viability in Huh7 cells, primary screen, cytotoxicity control for HCV replication inhibitor project, CellTiter-Glo luminescence, basal, 48 h (AID 1143); conditions: Huh7 HCV replicon, higher = more signal, called active from +8 up or from −8 down;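 further: Huh7 hepatoma cells carrying a hepatitis C replication reporter with no stimulus; test concentration not given here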
Activity calls are given as the source filed them.

Example entries and their recorded answers appear below.
CC(C)(C)OC(=O)CC[C@]1(C(=O)NCC(O)CO)N=C(c2ccc(OCCCO)cc2)O[C@H]1c1ccccc1 (some centres not stated) | -4.48 (inactive)
CCOC(=O)C[C@H]1[C@H](OC(=O)c2ccccc2-c2ccccc2)[C@@H](NC(=O)c2ccc(-c3ccccc3)cc2)c2cc(OCCCO)ccc2N1C(=O)c1ccc2ccccc2n1 | 0.0395 (inactive)
COC(=O)[C@@]1(Cc2ccc(F)cc2)[C@H]2c3cc(C(=O)N(C)C)n(Cc4cc(F)cc5c4OCOC5)c3C[C@H]2CN1C(=O)c1ccccc1 | -3.74 (inactive)
CCOC(=O)C[C@H]1[C@H](OC(=O)c2cc3ccccc3oc2=O)[C@@H](NC(=O)c2ccc(-c3ccccc3)cc2)c2cc(OCCCO)ccc2N1C(=O)c1ccc2ccccc2n1 | -0.168 (inactive)
[N-]=[N+]=NCc1ccccc1C[C@@]1(C(=O)NCc2ccccc2)N=C(c2ccc(OCCCO)cc2)O[C@@H]1c1ccccc1N=[N+]=[N-] | -3.96 (inactive)

// each molecule listed below needs its z-score
1. CC(C)C(=C=CC[C@H](O)c1ccc(OCCO)cc1)C[C@H](O)c1ccccn1
2. Cc1ccc(S[C@]2(C(=O)NCC(F)(F)F)CC(=O)N(Cc3ccccc3)[C@@H]2c2ccc(CO)cc2I)cc1

[A]
1: -1.8 (inactive); 2: -1.22 (inactive)

---

target: Pro-neuregulin-1, membrane-bound isoform (Homo sapiens); experiment: NRG1 binders on small-molecule microarrays, primary screen, psychiatric disease protein project, biochemical, small-molecule microarray, fluorescence 635/667 (AID 1075); conditions: NRG1 binding, 635 nm fluorescence, higher = more signal;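 further: score combines 667 nm spot fluorescence with signal to noise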
Could you label it class 1 if measured composite z-score is 0.9 or higher, and class 0 otherwise?

Sample answers from the record:
CCCCC(=C=CC[C@@H](O)c1ccccc1OCCO)C[C@@H](O)COCc1ccccc1 | class 0
C=CCOC(=O)[C@H]1[C@@H]2C(=O)O[C@@H](c3ccccc3)[C@@H](c3ccccc3)N2[C@@H](c2ccc(OCCOC(=O)[C@@H]3C[C@@H]4C(=O)N5CCC[C@H]5C(=O)N4[C@@H]3c3ccc(O)cc3)cc2)[C@]12C(=O)Nc1ccc(I)cc12 | class 1
CC(C)C(=C=CC[C@H](O)c1ccc(OCCO)cc1)C[C@H](O)c1ccccn1 | class 0

[Q] Exam item: decide whether the reported composite z-score for "C=CCN1C(=O)[C@@]2(O[C@@H](CCn3cc([C@H](O)c4ccccc4)nn3)[C@H]([Si](C)(C)c3ccc(OC)cc3)[C@H]2C)c2cc(N3CCC3=O)ccc21" is at least 0.9.
[A] class 1

[Q] Could you tell me if the measured composite z-score of "COC(=O)c1c2oc(c1C(=O)OC)C(=O)N(C)Cc1cn(nn1)C[C@H](Cc1ccccc1)NC(=O)N[C@H](CO)CC2" reaches 0.9 or more?
[A] class 0

[Q] hey, is composite z-score for this one >= 0.9? "COC(=O)[C@@]1(Cc2ccc(OC)cc2)[C@H]2c3cc(C(=O)N4CCCC4)n(Cc4c(-c5ccccc5)noc4C)c3C[C@H]2CN1C(=O)c1ccccc1"
[A] class 1

---

assay: yeast growth modulation, basal conditions, primary screen, YJM789 clinical isolate, OD600, 24 h (AID 1089);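 further: growth of clinical yeast isolate S. cerevisiae YJM 789 seeded 1000 cells per well; test concentration not given here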; settings: S. cerevisiae YJM789 growth, higher = more signal, called active from +8 up or from −8 down
Exercise: for every item that follows, state its recorded z-score.
Answers are plain numbers.

Please review the entries below; each comes with its answer.
CCOc1cc(C(O)C2C=CC3C(=O)N(C)C(=O)C3N2Nc2ccccc2)ccc1O (centres undefined) | 0.921
CC1CC/C=C\[C@H]2OC34C=CCN(C(C)C)C(=O)[C@H]3N(CCCCCCO)C(=O)[C@@H]4C2C(=O)O1 (some centres undefined) | -1.39
C=CCC(OC(C)=O)[C@@H]1[C@@H](N(Cc2cccc3ccccc23)C(=O)Cc2ccc(OC)cc2)c2cc(OCCCO)ccc2N1C(=O)c1ccc2ccccc2n1 (some centres undefined) | -0.482
COc1cc2c(cc1OC)CN(C(=O)[C@@H]1[C@H]3C(=O)O[C@H](c4ccccc4)[C@H](c4ccccc4)N3[C@H](c3ccc(OCCO)cc3)[C@@]13C(=O)Nc1ccc(C#CC4(O)CCCCCC4)cc13)CC2 | 0.972
C=CCC(OC(C)=O)[C@@H]1[C@@H](N(Cc2ccc(-c3cccc(C(F)(F)F)c3)o2)C(=O)c2ccc(C)cc2)c2cc(OCCCO)ccc2N1C(=O)c1ccc2ccccc2c1 (some centres undefined) | 0.488

Below is a list of molecules. For each, state its recorded z-score.
1. COC1OC[C@]2(C)[C@H]3C4=C(CN2C(=O)OC(C)(C)C)[C@H](C)C(CO)C(CO)C4CC[C@@H]13 (some centres undefined)
2. [N-]=[N+]=Nc1ccccc1C[C@]1(C(=O)N2CCOCC2)N=C(c2ccc(OCCCO)cc2)O[C@H]1c1ccccc1
3. COC(=O)c1c2oc(c1C(=O)OC)C(=O)N(C)Cc1cn(nn1)C[C@H](Cc1ccccc1)NC(=O)N[C@H](CO)CC2
4. CCC[C@@H]1C[C@@]1(CCC)[C@@H](NC(=O)OCc1ccccc1)c1ccc(-c2ccccc2)cc1
5. C=C(COC)C(=O)CC[C@@H](OC(=O)c1cccnc1)c1ccc(OCCO)cc1
6. COCCOC(=O)N1C(=O)[C@@]2(c3cc(C#Cc4ccc(OC)cc4)ccc31)[C@H](c1ccc(O)cc1)N1[C@H](c3ccccc3)[C@H](c3ccccc3)OC(=O)[C@H]1[C@@H]2C(=O)N1CCCCCCC1
7. COCCOC(=O)N1C(=O)[C@@]2(c3cc(C#CC4(O)CCCCCC4)ccc31)[C@H](c1ccc(O)cc1)N1[C@H](c3ccccc3)[C@H](c3ccccc3)OC(=O)[C@H]1[C@@H]2C(=O)NC[C@H](O)c1ccccc1
8. COc1ccccc1CN1C(=O)c2ccccc2[C@@]2(Cc3ccccc3N(CC(F)(F)F)C2=O)[C@@H]1c1ccc(CO)cc1

[A]
[0.58, 0.491, 1.23, -0.979, -10.9, -0.158, 0.0316, 0.17]

[Q] Return reported z-score; argument: O=C1NC(=O)C2C1C=CC(C(O)c1cccc3ccccc13)N2Nc1ccc(Cl)cc1Cl (centres undefined)
[A] -1.94

---

assay: small-molecule microarray binders of probe aShh, primary screen, biochemical, biotinylated probe, 635/667 nm fluorescence (AID 1114); conditions: higher = more signal;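 further: probe is biotin-labelled aShh protein from a stem cell growth factor screen; measures binding of labelled protein to compounds printed on the slide; score merges feature fluorescence at 667 nm with signal-to-noise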
So I've got a bunch of compounds here, and I need their composite z-score values.
Give bare numbers.

Recorded composite z-score, per entry:
COC(=O)[C@@]1(Cc2ccc(F)cc2)[C@H]2c3cc(C(=O)N(C)C)n(CCc4ccc(O)c(OC)c4)c3C[C@H]2CN1C(=O)c1ccccc1 | 2.74
C=C(C)C1CCC(C(O)C2C=CC3C(=O)N(C)C(=O)C3N2N2CCCCC2)CC1 (configuration not stated) | 0.413
COc1ccc([Si](C)(C)[C@@H]2[C@@H](CCn3cc([C@H](O)c4ccccc4)nn3)O[C@]3(C(=O)N(Cc4ccc(N5CCC5=O)cc4)c4ccccc43)[C@H]2C)cc1 | -0.191
COCCOC(=O)N1C(=O)[C@@]2(c3cc(C#CCCO)ccc31)[C@H](C(=O)Nc1nc3ccccc3s1)[C@H]1C(=O)O[C@H](c3ccccc3)[C@H](c3ccccc3)N1[C@@H]2c1ccccc1OCCO | 0.0469
O=C1NC(=O)C2C1C=CC(C(O)c1c(F)cccc1Cl)N2Nc1ccc(Cl)cc1Cl (configuration not stated) | 0.0782
COc1cc2c(cc1OC)CN(C(=O)[C@@H]1[C@H]3C(=O)O[C@H](c4ccccc4)[C@H](c4ccccc4)N3[C@H](c3ccc(OCCO)cc3)[C@@]13C(=O)Nc1ccccc13)CC2 | 0.0328

Switching to the query record.
[Q] I'd like to know its composite z-score. The compound in question is C=C(C)[C@@H]1CC=C(C(O)C2C=CC3C(=O)N(c4ccccc4)C(=O)C3N2Nc2ccccc2F)CC1 (some centres not stated)
[A] -0.0858

---

Kindly supply the reported composite z-score values for the records listed here.
experiment: small-molecule microarray binders of probe aDKK1, primary screen, biochemical, biotinylated probe, 635/667 nm fluorescence (AID 1099); conditions: higher = more signal;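 further: score merges 667nm spot fluorescence with signal to noise across triplicate slides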

Here are 6 compounds together with their reported answers.
C=CCOC(=O)[C@H]1[C@@H]2C(=O)O[C@@H](c3ccccc3)[C@@H](c3ccccc3)N2[C@@H](c2ccc(OCCOC(=O)[C@@H]3C[C@@H]4C(=O)N[C@@H](CCCCNC(C)=O)C(=O)N4[C@@H]3c3ccc(O)cc3)cc2)[C@]12C(=O)Nc1ccc(I)cc12 | 0.0153
O=C(NCC(F)(F)F)[C@@H]1c2ccccc2C(=O)N(Cc2ccc(OC(F)(F)F)cc2)[C@H]1c1ccc(CO)cc1 | -0.113
O=C1NC(=O)C2C1C=CC(C(O)c1ccco1)N2Nc1ccccn1 (configuration not stated) | -0.0191
CN(C)C(=O)[C@@]1(Cc2ccccc2CN=[N+]=[N-])N=C(c2ccc(OCCCO)cc2)O[C@H]1c1ccccc1CN=[N+]=[N-] | 0.832
OCCCC1=CC(c2ccc(CN3CCCC3)cc2)N(Cc2sc3ccccc3c2Cl)CC1 (configuration not stated) | 0.14
CC(c1ccccc1)C(O)C1C=CC2C(=O)N(c3ccccc3)C(=O)C2N1Nc1ccc([N+](=O)[O-])cc1 (configuration not stated) | 0.831

[Q] Can you share its composite z-score? I mean this compound: "C=C(COC)C(=O)CC[C@@H](OC(=O)c1cccnc1)c1ccc(OCCO)cc1"
[A] 0.131
